pIC50: −log10 of the molar value.
Consider the following pIC50 data for Coagulation factor X (Homo sapiens), collected from several reports.
quantity_kind: pIC50

Reference set, count: 2
>>> reported_result("CC(=N)N1CCC(Oc2ccc3c(ccc(=O)n3Cc3cccc(-c4ccc(C(=N)N)cc4)c3)c2)CC1")
4.73
>>> reported_result("CC(=N)N1CCC(Oc2ccc3c(c2)CCN(C(Cc2cccc(C(=N)N)c2)C(=O)NC(C)(C)C)C3=O)CC1 (stereo not shown)")
6.00

a. N=C(N)c1ccc(O[C@@H]2CO[C@H]3[C@@H]2OC[C@@H]3OCc2cccc(C(=N)N)c2)cc1
b. C#Cc1ccc(NC(=O)C(=O)N[C@H]2CC[C@H](c3nnc(C)o3)C[C@H]2NC(=O)c2nc3c(s2)CN(C)CC3)nc1
IN: Which one would you say has the larger pIC50 value: a , or b ? Refer to your chosen entry by its label in the reply.
OUT: b
(b: 8.96, a: 5.68)

###

pIC50: −log10 of the molar value.
Multi-source literature compilation: pIC50 on Coagulation factor X (Homo sapiens, UniProt P00742).
quantity_kind: pIC50

Worked set:
>>> reported_result("C[C@@H]1CCC[C@H](C)N1CCCCCn1c(=O)c(-c2cccc(C(=N)N)c2)nc2ccccc21")
7.19
>>> reported_result("CC(=N)N1CCC(Oc2ccc3c(ccc(=O)n3Cc3ccc(-c4cccc(C(=N)N)c4)cc3)c2)CC1")
7.08
>>> reported_result("CC(=N)N1CCC(Oc2ccc3c(c2)n(Cc2ccc4ccc(C(=N)N)cc4c2)c(=O)n3C(C)C)CC1")
7.54

I. N=C(N)c1cccc(NC(=O)C(Nc2ccc(-c3ccccc3S(N)(=O)=O)cc2)c2ccccc2)c1 (centres unmarked)
II. N=C(N)c1ccc(CNC(=O)Cn2c(-c3ccc(C(=N)N)cc3)c(Cl)nc(NC3CCC3)c2=O)cc1
IN: Would you kindly point out which of I and II has the smaller pIC50 figure? API: response body contains the label of the selected item.
OUT: II

A. O=C(Nc1ccc(Cl)cc1)N[C@@H](C(=O)NCC1CCN(c2ccncc2)CC1)c1ccccc1
B. CCC(=O)N1CCC2(CC1)CN1C(=O)CN(S(=O)(=O)c3cc4cc(Cl)ccc4[nH]3)CC1(COC)N2 (single isomer, unassigned; (-))
IN: Of the two listed items, which has the higher pIC50? First: A Second: B Reply with the label of the item you choose.
OUT: B
(B: 8.24, A: 7.26)

###

# literature pull: UniProt P00742 pIC50
pIC50: −log10 of the molar value.
quantity_kind: pIC50

A. CN1CCc2nc(C(=O)N[C@@H]3C[C@@H](c4nnco4)CC[C@@H]3NC(=O)C(=O)Nc3ccc(Cl)cn3)sc2C1
B. CN(C)c1ccc(CNC(=O)c2cccc(NS(=O)(=O)c3cccc(N)c3)c2)cc1
C. O=C(O)C1CN(S(=O)(=O)c2ccc3cc(Cl)ccc3c2)CCN1C(=O)C1CCN(c2ccncc2)CC1 (stereo not drawn)
D. Cc1ncc(CNc2ccc(-c3ccccc3S(=O)(=O)NC(C)(C)C)cc2)c(CO)c1O
IN: Please list these compounds in decreasing order of pIC50. The labels, placed in the requested order, form the answer.
OUT: A, C, B, D

I. N=C1OCCN1c1ccc(C2=NOC(CNC(=O)c3ccc(Cl)s3)C2)cc1 (stereo not drawn)
II. CC(C)(C)NS(=O)(=O)c1ccccc1-c1ccc(NC(C(=O)Nc2cccc(C(=N)N)c2)c2ccccc2)cc1 (stereo not drawn)
IN: Kindly identify which of I and II has the larger recorded pIC50 value. Refer to your chosen item by its label in the answer.
OUT: I
(I: 8.10, II: 6.85)

I. CCCC(Oc1cccc(C(=N)N)c1)C(=O)Nc1ccc(N2CCCCC2=O)cc1 (stereo not drawn)
II. CCCN(Cc1cccc(C(=N)N)c1)C(=O)Cc1ccc(-c2ccccc2S(C)(=O)=O)cc1
III. CC(=O)N1CCC2(CC1)CN1C(=O)CN(S(=O)(=O)c3cc4cc(Cl)ccc4[nH]3)CC1(CN(C)C)O2 (single isomer, unassigned)
IN: Would you mind ranking these compounds by ascending pIC50? Present the labels in the sequence the task asks for.
OUT: II, I, III

A. CCCN(Cc1cccc(C(=N)N)c1)C(=O)Nc1ccc(-c2ccccc2S(C)(=O)=O)cc1
B. N=C(N)c1nc2ccc(OC(=O)c3ccco3)cc2s1
IN: Hi team, can someone confirm which has the larger pIC50: A or B ? Thanks. I would appreciate it if you answered with the label of your choice.
OUT: B
